tested on: NCI-H1993; experiment: relative viability (nuclei count vs DMSO), 5 days (fraction); higher = more cells survive; conditions: first compound 0.1581 µM
# if measured relative viability < 0.7: Met  # else: Not met

Solved cases (5 shown):
# molecule, system, label class
records = [
    ("CC1(C)CCC(c2ccc(Cl)cc2)=C(CN2CCN(c3ccc(C(=O)NS(=O)(=O)c4ccc(N[C@H](CCN5CCOCC5)CSc5ccccc5)c(S(=O)(=O)C(F)(F)F)c4)cc3)CC2)C1 [Navitoclax] + CCNC(=O)c1noc(-c2cc(C(C)C)c(O)cc2O)c1-c1ccc(CN2CCOCC2)cc1 [Luminespib] (partner 0.01 µM)", "NCI-H1993", "Not met"),
    ("CC1(C)CCC(c2ccc(Cl)cc2)=C(CN2CCN(c3ccc(C(=O)NS(=O)(=O)c4ccc(N[C@H](CCN5CCOCC5)CSc5ccccc5)c(S(=O)(=O)C(F)(F)F)c4)cc3)CC2)C1 [Navitoclax] + CS(=O)(=O)N1CCN(Cc2cc3nc(-c4cccc5[nH]ncc45)nc(N4CCOCC4)c3s2)CC1 [Pictilisib] (partner 1 µM)", "NCI-H1993", "Not met"),
    ("CC1(C)CCC(c2ccc(Cl)cc2)=C(CN2CCN(c3ccc(C(=O)NS(=O)(=O)c4ccc(N[C@H](CCN5CCOCC5)CSc5ccccc5)c(S(=O)(=O)C(F)(F)F)c4)cc3)CC2)C1 [Navitoclax] + COc1cccc2cc(-c3nc([C@H]4CC[C@H](C(=O)O)CC4)n4ncnc(N)c34)[nH]c12 [OSI-027] (partner 0.5 µM)", "NCI-H1993", "Met"),
    ("CC1(C)CCC(c2ccc(Cl)cc2)=C(CN2CCN(c3ccc(C(=O)NS(=O)(=O)c4ccc(N[C@H](CCN5CCOCC5)CSc5ccccc5)c(S(=O)(=O)C(F)(F)F)c4)cc3)CC2)C1 [Navitoclax] + Nc1nc2[nH]cc(CCc3ccc(C(=O)N[C@@H](CCC(=O)O)C(=O)O)cc3)c2c(=O)[nH]1 [Pemetrexed] (partner 0.2 µM)", "NCI-H1993", "Met"),
    ("CC1(C)CCC(c2ccc(Cl)cc2)=C(CN2CCN(c3ccc(C(=O)NS(=O)(=O)c4ccc(N[C@H](CCN5CCOCC5)CSc5ccccc5)c(S(=O)(=O)C(F)(F)F)c4)cc3)CC2)C1 [Navitoclax] + CC(=O)c1c(C)c2cnc(Nc3ccc(N4CCNCC4)cn3)nc2n(C2CCCC2)c1=O [Palbociclib] (partner 0.5 µM)", "NCI-H1993", "Not met"),
]

**Q:** Lab note: confirm whether the reported relative viability for this molecule is below 0.7, equality not counting. molecule: CC1(C)CCC(c2ccc(Cl)cc2)=C(CN2CCN(c3ccc(C(=O)NS(=O)(=O)c4ccc(N[C@H](CCN5CCOCC5)CSc5ccccc5)c(S(=O)(=O)C(F)(F)F)c4)cc3)CC2)C1 [Navitoclax] + CC(=O)Nc1cccc(-n2c(=O)n(C3CC3)c(=O)c3c(Nc4ccc(I)cc4F)n(C)c(=O)c(C)c32)c1 [Trametinib] (partner 0.02 µM)
**A:** Met

**Q:** Hello, I'm reviewing records and need to know if relative viability of CC1(C)CCC(c2ccc(Cl)cc2)=C(CN2CCN(c3ccc(C(=O)NS(=O)(=O)c4ccc(N[C@H](CCN5CCOCC5)CSc5ccccc5)c(S(=O)(=O)C(F)(F)F)c4)cc3)CC2)C1 [Navitoclax] + Cc1nc(NC(=O)N2CCC[C@H]2C(N)=O)sc1-c1ccnc(C(C)(C)C(F)(F)F)c1 [Alpelisib] (partner 2 µM) is below 0.7. Could you check?
**A:** Met

###

tested on: HCC-827; assay: relative viability (nuclei count vs DMSO), 5 days (fraction); higher = more cells survive; conditions: first compound 0.03162 µM
experimental endpoint: relative viability
Answers are plain numbers.

Worked examples, 2 compounds total:
# compound, experimental endpoint, test result
rows = [
    ("NC(=O)Nc1cc(-c2cccc(F)c2)sc1C(=O)N[C@H]1CCCNC1 [AZD7762] + N=C(N)NC(=N)NCCc1ccccc1 [Phenformin] (partner 250 µM)", "relative viability", 0.422),
    ("NC(=O)Nc1cc(-c2cccc(F)c2)sc1C(=O)N[C@H]1CCCNC1 [AZD7762] + Nc1nc2[nH]cc(CCc3ccc(C(=O)N[C@@H](CCC(=O)O)C(=O)O)cc3)c2c(=O)[nH]1 [Pemetrexed] (partner 0.2 µM)", "relative viability", 0.257),
]

Pending compound:
**Q:** Reported relative viability, compound NC(=O)Nc1cc(-c2cccc(F)c2)sc1C(=O)N[C@H]1CCCNC1 [AZD7762] + CS(=O)(=O)CCNCc1ccc(-c2ccc3ncnc(Nc4ccc(OCc5cccc(F)c5)c(Cl)c4)c3c2)o1 [Lapatinib] (partner 2 µM) : ____
**A:** 0.177

###

tested on: NCI-H1563; test: relative viability (nuclei count vs DMSO), 5 days (fraction); higher = more cells survive; details: first compound 0.1581 µM
Threshold 0.7. relative viability below it: YES. relative viability at it or above: NO.

Before answering, review these 3 worked examples.
# compound, system, label class
rows = [
    ("CC1(C)CCC(c2ccc(Cl)cc2)=C(CN2CCN(c3ccc(C(=O)NS(=O)(=O)c4ccc(N[C@H](CCN5CCOCC5)CSc5ccccc5)c(S(=O)(=O)C(F)(F)F)c4)cc3)CC2)C1 [Navitoclax] + Cc1nc(Nc2ncc(C(=O)Nc3c(C)cccc3Cl)s2)cc(N2CCN(CCO)CC2)n1 [Dasatinib] (partner 0.075 µM)", "NCI-H1563", "YES"),
    ("CC1(C)CCC(c2ccc(Cl)cc2)=C(CN2CCN(c3ccc(C(=O)NS(=O)(=O)c4ccc(N[C@H](CCN5CCOCC5)CSc5ccccc5)c(S(=O)(=O)C(F)(F)F)c4)cc3)CC2)C1 [Navitoclax] + Cc1nc(NC(=O)N2CCC[C@H]2C(N)=O)sc1-c1ccnc(C(C)(C)C(F)(F)F)c1 [Alpelisib] (partner 2 µM)", "NCI-H1563", "NO"),
    ("CC1(C)CCC(c2ccc(Cl)cc2)=C(CN2CCN(c3ccc(C(=O)NS(=O)(=O)c4ccc(N[C@H](CCN5CCOCC5)CSc5ccccc5)c(S(=O)(=O)C(F)(F)F)c4)cc3)CC2)C1 [Navitoclax] + COc1cc2c(Oc3ccc(NC(=O)C4(C(=O)Nc5ccc(F)cc5)CC4)cc3F)ccnc2cc1OCCCN1CCOCC1 [Foretinib] (partner 0.25 µM)", "NCI-H1563", "NO"),
]

**Q:** Determine if CC1(C)CCC(c2ccc(Cl)cc2)=C(CN2CCN(c3ccc(C(=O)NS(=O)(=O)c4ccc(N[C@H](CCN5CCOCC5)CSc5ccccc5)c(S(=O)(=O)C(F)(F)F)c4)cc3)CC2)C1 [Navitoclax] + C[C@@H](Oc1cc(-c2cnn(C3CCNCC3)c2)cnc1N)c1c(Cl)ccc(F)c1Cl [Crizotinib] (partner 1 µM) shows relative viability strictly lower than 0.7.
**A:** NO

###

tested on: EKVX; experiment: relative viability (nuclei count vs DMSO), 5 days (fraction); higher = more cells survive; conditions: first compound 0.08 µM
experimental endpoint: relative viability
Numbers only.

Examples from the recorded data:
# molecule, experimental endpoint, test result
records = [
    ("C=C1C(=O)O[C@@H](CCCCCCCC)[C@@H]1C(=O)O [C-75] + COc1cc2c(Oc3ccc(NC(=O)C4(C(=O)Nc5ccc(F)cc5)CC4)cc3F)ccnc2cc1OCCCN1CCOCC1 [Foretinib] (partner 0.25 µM)", "relative viability", 0.644),
    ("C=C1C(=O)O[C@@H](CCCCCCCC)[C@@H]1C(=O)O [C-75] + Nc1ncn([C@H]2C[C@H](O)[C@@H](CO)O2)c(=O)n1 [Decitabine] (partner 2 µM)", "relative viability", 0.399),
]

Now consider a different molecule.
**Q:** For the molecule Oc1nc(-c2ccc(C(F)(F)F)cc2)nc2c1CSCC2 [XAV939] + Nc1ncn([C@H]2C[C@H](O)[C@@H](CO)O2)c(=O)n1 [Decitabine] (partner 2 µM) , what relative viability is on record?
**A:** 0.329

###

tested on: NCI-H1648; test: relative viability (nuclei count vs DMSO), 5 days (fraction); higher = more cells survive; conditions: first compound 0.08 µM
experimental endpoint: relative viability
Numbers only.

Example compounds with recorded relative viability:
# compound, test result
records = [
    ("C=C1C(=O)O[C@@H](CCCCCCCC)[C@@H]1C(=O)O [C-75] + CC(=O)c1c(C)c2cnc(Nc3ccc(N4CCNCC4)cn3)nc2n(C2CCCC2)c1=O [Palbociclib] (partner 0.5 µM)", 0.251),
    ("C=C1C(=O)O[C@@H](CCCCCCCC)[C@@H]1C(=O)O [C-75] + Nc1ncn([C@H]2C[C@H](O)[C@@H](CO)O2)c(=O)n1 [Decitabine] (partner 2 µM)", 0.487),
    ("C=C1C(=O)O[C@@H](CCCCCCCC)[C@@H]1C(=O)O [C-75] + COc1cccc2cc(-c3nc([C@H]4CC[C@H](C(=O)O)CC4)n4ncnc(N)c34)[nH]c12 [OSI-027] (partner 0.5 µM)", 0.238),
]

Now for the compound whose relative viability we want.
**Q:** Could you tell me which relative viability is on file for C=C1C(=O)O[C@@H](CCCCCCCC)[C@@H]1C(=O)O [C-75] + NC(=O)Nc1cc(-c2cccc(F)c2)sc1C(=O)N[C@H]1CCCNC1 [AZD7762] (partner 0.2 µM) ?
**A:** 0.75
